- PROCEDURE TEXT: AUC (0 to 24 hrs) in monkey at 1.0 mg/kg, po
- Assay type: ADME, organism-based, Macaca mulatta
- Parameters: time < 24 hr, dose 1 mg/kg, route oral
- EXPERIMENTAL SETUP: rhesus monkey, plasma
PARAMETER: AUC(0-t) at 24 h (ng·h/mL)

I. COCC(=O)N1CC[C@H](NC(=O)c2cc3cc(Cl)ccc3[nH]2)[C@H](NC(=O)c2nc3c(s2)CN(C)CC3)C1.Cl
II. CN1CCc2nc(C(=O)N[C@@H]3CCCC[C@@H]3NC(=O)c3cc4cc(Cl)ccc4[nH]3)sc2C1.Cl
Of the two listed items, which has the higher AUC(0-t) at 24 h? First: I Second: II Identify your pick by its label.
I
(I: 83.6 ng·h/mL, II: 56.6 ng·h/mL)
